The measured values listed here are drawn from patent US11161819B2.

assay.target: UniProt:Q5NUL3
Sequence (Q5NUL3 whole entry): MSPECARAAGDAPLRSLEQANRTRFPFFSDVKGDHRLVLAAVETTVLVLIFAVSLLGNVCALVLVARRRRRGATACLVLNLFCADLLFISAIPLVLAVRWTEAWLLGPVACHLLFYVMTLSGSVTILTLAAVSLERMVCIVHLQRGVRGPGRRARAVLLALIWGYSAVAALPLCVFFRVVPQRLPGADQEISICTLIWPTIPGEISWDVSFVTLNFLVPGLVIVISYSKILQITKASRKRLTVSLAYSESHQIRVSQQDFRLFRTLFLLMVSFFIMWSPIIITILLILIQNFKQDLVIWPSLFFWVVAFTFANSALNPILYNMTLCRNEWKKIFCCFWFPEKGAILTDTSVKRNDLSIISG
protocol.description: Human GPR120 IP1 Assay (inositol phosphate turnover, CisBio IP-One kit)
details: IP1 accumulation in CHO-K1 cells stably expressing the short form of human GPR120; 60 min compound incubation; 4-parameter fit; read-out: hGPR120 EC50
// NB: equality with 300 nM counts as f; only EC50 strictly below is t

Please review the following examples before continuing.
O=C(O)CCc1cc(F)c2c(c1)CCN(c1cc(OC(F)(F)F)ccc1F)C2    f
Cc1nn(-c2ccc(F)cc2)c(N2CCc3cc(C4CC4C(=O)O)ccc3C2)c1F (centres unmarked) [Example 92]    f
COc1cc(Cl)c(N2CCc3cc(CCC(=O)O)ccc3C2)cc1OC1CCC1    t

Problem: For `N#Cc1c(F)cc(OC(F)(F)F)cc1N1CCc2cc(CCC(=O)O)ccc2C1` , is the recorded EC50 below the cut-off of 300 nM?
Solution: f

Problem: For `O=C(O)[C@H]1C[C@@H]1c1ccc2c(c1F)CCN(c1cc(OC(F)(F)F)ccc1F)C2` , is the recorded EC50 below the cut-off of 300 nM?
Solution: t

Problem: For `O=C(O)[C@H]1C[C@@H]1c1ccc2c(c1F)CCN(c1cc(OC3CCC3)cc(Cl)c1F)C2` , is the recorded EC50 below the cut-off of 300 nM?
Solution: f

Problem: For `Cc1ccc(Oc2cc(C(F)F)c(F)c(N3CCc4cc(CCC(=O)O)ccc4C3)c2)nc1` , is the recorded EC50 below the cut-off of 300 nM?
Solution: t

Problem: For `O=C(O)CCc1ccc2c(c1F)CCN(c1nc(OC3CCC3)ccc1F)C2` , is the recorded EC50 below the cut-off of 300 nM?
Solution: t

Problem: For `N#Cc1c(F)cc(OC2CCC2)cc1N1CCc2c(ccc([C@H]3C[C@@H]3C(=O)O)c2F)C1` , is the recorded EC50 below the cut-off of 300 nM?
Solution: f

Problem: For `O=C(O)CCc1ccc2c(c1)CCN(c1cc(Cl)c(C(F)(F)F)c(Cl)c1)C2` , is the recorded EC50 below the cut-off of 300 nM?
Solution: f

Problem: For `O=C(O)[C@H]1C[C@@H]1c1ccc2c(c1F)CCN(c1cc(OC(F)(F)F)cc(F)c1Cl)C2` , is the recorded EC50 below the cut-off of 300 nM?
Solution: f

Problem: For `COc1ccc(-n2nc(C)c(C#N)c2N2CCc3ccccc3C2)cc1` , is the recorded EC50 below the cut-off of 300 nM?
Solution: t

Problem: For `O=C(O)CCc1ccc2c(c1F)CCN(c1cccc(C3CC3)n1)C2` , is the recorded EC50 below the cut-off of 300 nM?
Solution: t
